Reference source for all entries: PubChem BioAssay AID2060340

Exercise: state measured viability, T/C for each of the compounds provided.
Tested on: 349418-098-R-PDC spheroids, viability, % test/control;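 also: spheroids exposed to compounds for 7 days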
Protocol Summary: Anticancer human tumor 349418-098-R-PDC patient-derived lung adenocarcinoma cell line growth inhibition [IpAb]
Condition Parameters: second compound 0.01 µM; first compound 3.16 µM; active compounds read low; spheroids with HUVEC and MSC

Input line: // query viability, T/C value for entry CCCS(=O)(=O)Nc1ccc(F)c(C(=O)c2c[nH]c3ncc(-c4ccc(Cl)cc4)cc23)c1F + CCN1CCN(Cc2ccc(Nc3ncc(F)c(-c4cc(F)c5nc(C)n(C(C)C)c5c4)n3)nc2)CC1
Output line: 27.6%

Input line: Queued: Cc1nc(NC(=O)N2CCCC2C(N)=O)sc1-c1ccnc(C(C)(C)C(F)(F)F)c1 (configuration not stated) + CCN1CCN(Cc2ccc(Nc3ncc(F)c(-c4cc(F)c5nc(C)n(C(C)C)c5c4)n3)nc2)CC1
Output line: 10.2%

Input line: Queued: CC1(C)CCC(CN2CCN(c3ccc(C(=O)NS(=O)(=O)c4ccc(NCC5CCOCC5)c([N+](=O)[O-])c4)c(Oc4cnc5[nH]ccc5c4)c3)CC2)=C(c2ccc(Cl)cc2)C1 + CCN1CCN(Cc2ccc(Nc3ncc(F)c(-c4cc(F)c5nc(C)n(C(C)C)c5c4)n3)nc2)CC1
Output line: 42.9%

Input line: Queued: Cn1ncc(Cl)c1-c1cc(C(=O)NC(CN)Cc2cccc(F)c2)sc1Cl (configuration not stated) + CCN1CCN(Cc2ccc(Nc3ncc(F)c(-c4cc(F)c5nc(C)n(C(C)C)c5c4)n3)nc2)CC1
Output line: 6.15%

Input line: Queued: Cn1nccc1Nc1nccc(-c2ccn(C(CO)c3ccc(Cl)c(F)c3)c(=O)c2)n1 (configuration not stated) + CCN1CCN(Cc2ccc(Nc3ncc(F)c(-c4cc(F)c5nc(C)n(C(C)C)c5c4)n3)nc2)CC1
Output line: 23.5%

Input line: Queued: C=CC(=O)N1CCN(c2nc(=O)n(-c3c(C)ccnc3C(C)C)c3nc(-c4c(O)cccc4F)c(F)cc23)C(C)C1 (configuration not stated) + CCN1CCN(Cc2ccc(Nc3ncc(F)c(-c4cc(F)c5nc(C)n(C(C)C)c5c4)n3)nc2)CC1
Output line: 57.2%

Input line: Queued: C=CCn1c(=O)c2cnc(Nc3ccc(N4CCN(C)CC4)cc3)nc2n1-c1cccc(C(C)(C)O)n1 + CCN1CCN(Cc2ccc(Nc3ncc(F)c(-c4cc(F)c5nc(C)n(C(C)C)c5c4)n3)nc2)CC1
Output line: 4.65%
